- Assay system: human LPAR1 (Homo sapiens)
- Construct: expressed in transfected cells
- Protocol details: Test Example 1: antagonism against response of LPA-induced increase in intracellular Ca2+ concentration in RH7777 cells stably expressing human LPAR1
- Type: cell-based
- Recorded conditions: RH7777 cells stably expressing human LPAR1; Fluo-4 fluorescence, FDSS6000; read-out: IC50 value (concentration producing 50% antagonism against response of LPA-induced increase in intracellular Ca2+ concentration) (converted)
- Procedure: (1) Preparation of RH7777 cells stably expressing human LPAR1 The human LPAR1 expression vector was transfected into RH7777 cells to acquire human LPAR1 expressing cells. […] The cells were seeded onto the Poly-D-Lysine 96 well black plate and incubated overnight. […] In FDSS6000 (Hamamatsu Photonics K.K.), LPAs were added, and the change in intracellular Ca^2+ concentration was detected using the fluorescence value of a wavelength of 540 nm by an excitation wavelength of 480 nm as an indicator. […]
Measure name: IC50 (nM)

CCOc1cc([C@@H](C)N(CCCCc2ccccc2)C(=O)NC2(c3nnn[nH]3)CC(F)(F)C2)cc(OCC)c1C(C)=O [Example 10-7] = 2.97

P: CCOc1cc([C@@H](C)N(CCO[C@@H](C)c2ccccc2)C(=O)NC2(C(=O)O)CC(OCC)C2)c(C)c(OCC)c1C(C)=O (stereo partly drawn) [Example 5-119]
Q: CCOc1cc([C@@H](C)N(CCOCc2ccccc2)C(=O)NC2(C(=O)O)CC(F)(F)C2)cc(OCC)c1C(C)O (stereo partly drawn) [Example 4-104]
Field: lower recorded IC50 (choose P or Q ) Answer with the label corresponding to your selection.
Q
(Q: 1.31 nM, P: 2.91 nM)

====

- Assay system: human LPAR1 (Homo sapiens)
- Construct: expressed in transfected cells
- Protocol details: Test Example 1: antagonism against response of LPA-induced increase in intracellular Ca2+ concentration in RH7777 cells stably expressing human LPAR1
- Type: cell-based
- Recorded conditions: RH7777 cells stably expressing human LPAR1; Fluo-4 fluorescence, FDSS6000; read-out: IC50 value (concentration producing 50% antagonism against response of LPA-induced increase in intracellular Ca2+ concentration) (converted)
Measure name: IC50 (nM)

// worked examples, IC50 included
CCOc1c(C(C)=O)ccc([C@@H](C)N(CCO[C@@H](C)c2ccccc2)C(=O)NC2(C(=O)O)CCC2)c1C = 3.91
CCOc1c(C(C)=O)ccc([C@@H](C)N(CCCC(F)(F)c2ccccc2)C(=O)NC2(C(=O)O)CCC2)c1C = 3.75

P: CCOC1CC(NC(=O)N(CCOCc2ccccc2)C(C)c2cc(OC)c(C3CC3)c(OC)c2C)(C(=O)O)C1 (stereo not shown)
Q: CCOc1cc(C(C)N(CCCCc2ccccc2)C(=O)NC2(C(=O)O)CC(F)(F)C2)cc(OCC)c1C(C)C (stereo not shown)
Given P and given Q , which shows the smaller recorded IC50? When you have decided, please share the label of that item.
P
(P: 2.05 nM, Q: 5.21 nM)

====

- Assay system: human LPAR1 (Homo sapiens, UniProt Q92633)
- Construct: expressed in transfected cells
- Sequence (Q92633 whole entry): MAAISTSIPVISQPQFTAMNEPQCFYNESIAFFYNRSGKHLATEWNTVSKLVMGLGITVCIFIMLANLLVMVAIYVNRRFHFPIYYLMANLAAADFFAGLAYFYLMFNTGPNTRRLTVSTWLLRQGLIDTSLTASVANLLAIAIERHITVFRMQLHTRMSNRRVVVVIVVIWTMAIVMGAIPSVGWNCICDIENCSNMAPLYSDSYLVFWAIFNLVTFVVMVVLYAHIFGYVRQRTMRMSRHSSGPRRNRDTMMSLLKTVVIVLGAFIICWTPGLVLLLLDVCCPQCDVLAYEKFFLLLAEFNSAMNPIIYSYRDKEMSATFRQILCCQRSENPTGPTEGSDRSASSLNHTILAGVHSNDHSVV
- Protocol details: Test Example 1: antagonism against response of LPA-induced increase in intracellular Ca2+ concentration in RH7777 cells stably expressing human LPAR1
- Assay type: cell-based
- Recorded conditions: RH7777 cells stably expressing human LPAR1; Fluo-4 fluorescence, FDSS6000; read-out: IC50 value (concentration producing 50% antagonism against response of LPA-induced increase in intracellular Ca2+ concentration) (converted)
Measure name: IC50 (nM)

Sample answers from the record:
COc1cc(C(C)N(CCOCc2ccccc2)C(=O)NC2(C(=O)O)CC(F)(F)C2)c(Cl)c(OC)c1C(C)=O (stereo not drawn) [Example 5-143] = 3.11
CCOc1cc([C@@H](C)N(CCO[C@@H](C)c2ccccc2)C(=O)NC2(C(=O)O)CCC2)cc(OCC)c1C(C)=O [Example 4-114] = 2.54
CCNc1cc(C(C)N(CCCCc2ccccc2)C(=O)NC2(C(=O)O)CC(F)(F)C2)cc(OCC)c1C#N (stereo not drawn) [Example 5-114] = 4.19

A: CCOc1cc(C(C)N(CCCCc2ccccc2)C(=O)NC2(C(=O)O)CC(F)(F)C2)cc(OCC)c1C(C)=O (stereo not drawn) [Example 1-56]
B: CCOc1cc([C@@H](C)N(CCO[C@@H](C)c2ccccc2)C(=O)NC2(C(=O)O)CC(OC)C2)cc(OCC)c1C1(O)CC1 (stereo partly drawn) [Example 4-127]
C: CCOc1cc([C@@H](C)N(CCO[C@@H](C)c2ccccc2)C(=O)NC2(C(=O)O)CC(OC)C2)cc(OCC)c1C(C)O (stereo partly drawn) [Example 4-124]
D: CCOc1cc([C@@H](C)N(CCCC(F)(F)c2ccccc2)C(=O)NC2(C(=O)O)CCC2)cc(OCC)c1C(C)O (stereo partly drawn) [Example 4-52]
Put the molecules in ascending order of IC50. Use the labels to give the requested order.
D, C, B, A

1: CCOc1cc([C@@H](C)N(CCC(F)(F)Cc2ccccc2)C(=O)NC2(C(=O)O)CCOCC2)c(Cl)c(OCC)c1C(C)O (stereo partly drawn) [Example 5-67]
2: CCOc1cc([C@@H](C)N(CCO[C@@H](C)c2ccccc2)C(=O)NC2(C(=O)O)CC2)c(C)c(OCC)c1C [Example 5-75]
3: CCOc1cc([C@@H](C)N(CCCCc2ccccc2)C(=O)NC2(C(=O)O)CCOCC2)cc(OCC)c1C1CC1 [Example 1-155]
4: CCOc1cc([C@@H](C)N(CCCCc2ccccc2)C(=O)NC2(C(=O)O)CCOCC2)cc(OCC)c1C1(O)CC1 [Example 1-153]
5: CCOc1cc([C@@H](C)N(CCOCc2ccccc2)C(=O)NC2(C(=O)O)CCOCC2)c(Cl)c(OCC)c1C(C)=O [Example 5-39]
Give the ascending ranking of the items by reported IC50. Dear reader, please state the labels in the requested order.
5, 3, 2, 1, 4
(5: 0.516 nM, 3: 0.997 nM, 2: 4.74 nM, 1: 43.4 nM, 4: 173 nM)

Source: patent US12338203B2
